Reported Vd values are given for each entry in this list.
assay: Pharmacokinetic profile following intravenous administration in rats; assay type: in vivo; settings: serum, rat, 0.5 mg/kg

Sample records with Vd:
Molecule | Readout Name | Result
COc1cc([C@@H](C)NC2CC[C@H](c3ccc(C(=O)NC4CCNCC4)cc3)C2)ccc1F (mixture of isomers) | Vd | 10 to 50 L/kg
COc1cc([C@@H](C)N[C@H]2CC[C@@H](c3ccc(C(=O)N4CCNC(=O)C4)cc3)C2)ccc1F | Vd | 10 to 50 L/kg
COc1cc([C@@H](C)N[C@H]2CC[C@@H](c3ccc(S(=O)(=O)NCCO)cc3)C2)ccc1F | Vd | > 50 L/kg
COc1cc([C@@H](C)N[C@H]2CC[C@@H](c3ccc(-c4nnn[nH]4)cc3)C2)ccc1F | Vd | < 10 L/kg

// switching to the query molecule
Query string: Fill in the blank: the reported Vd of COc1cc([C@@H](C)N[C@H]2CC[C@@H](c3ccc(C(=O)NCCNS(C)(=O)=O)cc3)C2)ccc1F.Cl is ____.
Result string: > 50 L/kg
